Tested on: Zika virus NS2B-NS3 protease (unlinked complex)
Assay: Primary screen GU Rhodamine qHTS for Zika virus inhibitors: Unlinked NS2B-NS3 protease assay (AID 1347159); also: nearly all actives have a fitted effect of over 60% in size
Details: Recombinant ZIKV NS2B-NS3 protease, Rhodamine110 substrate fluorescence; series mostly up to 107 µM
Records with an inconclusive call do not appear. Active and inactive are the calls of the source. Calls follow the shape of the dose curve; as a rule, active = well fitted inhibition curve with a large enough effect; inconclusive = small, poorly fitted or top-dose-only effect; inactive = no such curve, though single readings can be large or run the other way.
Classes used: YES for active, NO for inactive

{"Molecule": "Cc1cc(CO)c(O)c(C(=O)CC2CC(=O)NC(=O)C2)c1", "Target or test system": "Zika virus NS2B-NS3 protease (unlinked complex)", "Category": "NO"}
{"Molecule": "COc1cccc(C(=O)NCCNc2nc3cc(C)cc(C)c3cc2C#N)c1", "Target or test system": "Zika virus NS2B-NS3 protease (unlinked complex)", "Category": "NO"}
{"Molecule": "CC(C)(O)C(O)C(=O)OCc1ccc(O[C@@H]2O[C@H](CO)[C@@H](O)[C@H](O)[C@H]2O)cc1 (some centres not stated)", "Target or test system": "Zika virus NS2B-NS3 protease (unlinked complex)", "Category": "NO"}
{"Molecule": "CC(C)=CCc1c(O)cc2oc3cc(C)cc(O)c3c2c1C", "Target or test system": "Zika virus NS2B-NS3 protease (unlinked complex)", "Category": "YES"}
{"Molecule": "CC1CCC2(C(=O)O)CCC3(C)C(=CCC4C5(C)CCC(O)C(C)(C(=O)O)C5CCC43C)C2C1(C)O (configuration not stated)", "Target or test system": "Zika virus NS2B-NS3 protease (unlinked complex)", "Category": "NO"}
{"Molecule": "O=C(NC/C=C/CN1CCN(c2cccc(Cl)c2Cl)CC1)c1ccc(-c2ccccn2)cc1", "Target or test system": "Zika virus NS2B-NS3 protease (unlinked complex)", "Category": "NO"}
{"Molecule": "COc1cc(/C=C/C(=O)O[C@@H]2C[C@@](O)(C(=O)O)C[C@@H](O)[C@@H]2O)ccc1O", "Target or test system": "Zika virus NS2B-NS3 protease (unlinked complex)", "Category": "NO"}
{"Molecule": "OCC1OC(Oc2cc(O)cc(/C=C/c3ccc(OC4OC(CO)C(O)C(O)C4O)cc3O)c2)C(O)C(O)C1O (configuration not stated)", "Target or test system": "Zika virus NS2B-NS3 protease (unlinked complex)", "Category": "NO"}
{"Molecule": "C[C@@H]1O[C@@H](O[C@H]2[C@H](OC(=O)[C@]34CCC(C)(C)C[C@H]3C3=CCC5[C@@]6(C)C[C@@H](O)[C@@H](O)[C@@](C)(CO)C6[C@H](O)C[C@@]5(C)[C@]3(C)CC4)OC[C@H](O)[C@@H]2O)[C@H](O)[C@H](O)[C@H]1O[C@@H]1OC[C@@H](O)[C@H](O[C@H]2O[C@H](C)[C@@H](O)[C@H](O)[C@@H]2O)[C@H]1O (some centres not stated)", "Target or test system": "Zika virus NS2B-NS3 protease (unlinked complex)", "Category": "NO"}
{"Molecule": "CCOC(=O)CSc1nc2c(sc3ccccc32)c(=O)n1CCCN1CCCC1", "Target or test system": "Zika virus NS2B-NS3 protease (unlinked complex)", "Category": "NO"}
{"Molecule": "COc1cc(C)c(C(=O)OC2C(C)OC(OC3CCC(C)C4C3C=C(C)C3/C(C)=C\\CC/C(C)=C/C5(C)C=C(C(=O)O)C(C)CC56OC(=O)/C(=C(\\O)C34C)C6=O)C(O)C2O)c(OC)c1 (configuration not stated)", "Target or test system": "Zika virus NS2B-NS3 protease (unlinked complex)", "Category": "YES"}
{"Molecule": "CC1=CC(=O)CC(C)(C)C1CO[C@@H]1O[C@H](CO)[C@@H](O)[C@H](O)[C@H]1O (some centres not stated)", "Target or test system": "Zika virus NS2B-NS3 protease (unlinked complex)", "Category": "NO"}
{"Molecule": "O=C(/C=C/c1ccc(O)cc1)OCC1OC(O)C(OC2OC(CO)C(O)C(O)C2O)C(O)C1O (configuration not stated)", "Target or test system": "Zika virus NS2B-NS3 protease (unlinked complex)", "Category": "NO"}
{"Molecule": "NC1=NC2(c3cc(NC(=O)c4ccc(F)cn4)ccc3F)COCC2CS1 (configuration not stated)", "Target or test system": "Zika virus NS2B-NS3 protease (unlinked complex)", "Category": "NO"}
{"Molecule": "C/C=C(/C)C(=O)OC1C2OC2C2(CO2)C2C3OC(=O)C(C)C3CCC12C (configuration not stated)", "Target or test system": "Zika virus NS2B-NS3 protease (unlinked complex)", "Category": "NO"}
{"Molecule": "CC(=O)c1ccc(O[C@@H]2O[C@H](CO[C@@H]3OC[C@@H](O)[C@H](O)[C@H]3O)[C@@H](O)[C@H](O)[C@H]2O)cc1", "Target or test system": "Zika virus NS2B-NS3 protease (unlinked complex)", "Category": "NO"}
{"Molecule": "CC1C2=CC(=O)OC2(O)CC2C1C(OC(=O)c1ccccc1)C(OC(=O)c1ccccc1)C1(O)C2(C)CCC(O)C1(C)C(=O)O (configuration not stated)", "Target or test system": "Zika virus NS2B-NS3 protease (unlinked complex)", "Category": "NO"}
{"Molecule": "CCC/C=C1\\OC(=O)C2=C1CCC(O)C2O (configuration not stated)", "Target or test system": "Zika virus NS2B-NS3 protease (unlinked complex)", "Category": "NO"}
{"Molecule": "C[C@@H]1O[C@@H](O[C@H]2[C@H](O)[C@@H](O)[C@H](OC[C@H]3O[C@@H](OC(=O)[C@]45CCC(C)(C)C[C@H]4C4=CCC6[C@@]7(C)C[C@@H](O)[C@H](O)[C@@](C)(CO)C7[C@H](O)C[C@@]6(C)[C@]4(C)CC5)[C@H](O)[C@@H](O)[C@@H]3O)O[C@@H]2CO)[C@H](O)[C@H](O)[C@H]1O (some centres not stated)", "Target or test system": "Zika virus NS2B-NS3 protease (unlinked complex)", "Category": "NO"}
{"Molecule": "CCC12CCCN3CCc4c(n(c5ccccc45)C(O)C1)C32 (configuration not stated)", "Target or test system": "Zika virus NS2B-NS3 protease (unlinked complex)", "Category": "NO"}
{"Molecule": "NC[C@H]1CCC[C@@H](CNC(=O)[C@@H](Cc2c[nH]c3ccccc23)NC(=O)N2CCC3(C=Cc4ccccc43)CC2)C1", "Target or test system": "Zika virus NS2B-NS3 protease (unlinked complex)", "Category": "NO"}
{"Molecule": "COc1ccc(-c2ccn(CC[C@](C)(C(=O)NO)S(C)(=O)=O)c(=O)c2)c(F)c1", "Target or test system": "Zika virus NS2B-NS3 protease (unlinked complex)", "Category": "NO"}
{"Molecule": "C=C[C@@]1(C)CCC2=C([C@H]1OC(C)=O)[C@H](OC(C)=O)CC1[C@](C)(C(=O)OC)CC[C@H](OC(C)=O)[C@]21C (some centres not stated)", "Target or test system": "Zika virus NS2B-NS3 protease (unlinked complex)", "Category": "NO"}
{"Molecule": "FC(F)(F)Oc1ccc(-c2ccc3nnc(C(F)(F)F)n3c2)cc1", "Target or test system": "Zika virus NS2B-NS3 protease (unlinked complex)", "Category": "NO"}
{"Molecule": "CCC(C)/C=C(C)/C=C/C(=O)C1CCC(O)C(C)(O)C1=O (configuration not stated)", "Target or test system": "Zika virus NS2B-NS3 protease (unlinked complex)", "Category": "YES"}
{"Molecule": "Cc1cn2cc(CC(=O)N3CCC4(CC3)CN(Cc3ccc(-n5nccn5)cc3Cl)C4)nc2s1", "Target or test system": "Zika virus NS2B-NS3 protease (unlinked complex)", "Category": "NO"}
{"Molecule": "O=C(C1OC1/C=C/c1ccc2c(c1)OCO2)N1CCCCC1 (configuration not stated)", "Target or test system": "Zika virus NS2B-NS3 protease (unlinked complex)", "Category": "NO"}
{"Molecule": "C/C=C1/[C@H](O[C@@H]2O[C@H](CO)[C@@H](O)[C@H](O)[C@H]2O)OC=C(C(=O)OC)[C@H]1CC(=O)OCCc1ccc(O)c(O)c1", "Target or test system": "Zika virus NS2B-NS3 protease (unlinked complex)", "Category": "NO"}
{"Molecule": "Cc1cc(CNC(=O)c2cc(C(=O)NCc3ccc(F)c(C)c3)ncn2)ccc1F", "Target or test system": "Zika virus NS2B-NS3 protease (unlinked complex)", "Category": "NO"}
{"Molecule": "Cc1occc(=O)c1O[C@@H]1O[C@H](CO)[C@@H](O)[C@H](O)[C@H]1O", "Target or test system": "Zika virus NS2B-NS3 protease (unlinked complex)", "Category": "NO"}
{"Molecule": "C/C=C(\\C)C(=O)O[C@H]1C=CC(=O)O[C@H]1/C=C/[C@H](O)[C@@H](C)O", "Target or test system": "Zika virus NS2B-NS3 protease (unlinked complex)", "Category": "NO"}
{"Molecule": "C=C(C(=O)O)[C@@H]1CC[C@@]2(C)CC[C@@H](O)C(=C)C2C1 (some centres not stated)", "Target or test system": "Zika virus NS2B-NS3 protease (unlinked complex)", "Category": "NO"}
